Reference source: ChEMBL document CHEMBL1201862

Quick list: GI50 per entry.
- Tested on: 786-0
- Assay explanation: NCI tumour cell line growth inhibition, 48 h
Calls of active or inactive are those of the source. Rule as the data show it: active = GI50 up to about 1.1 µM and inactive = higher.

Solved cases (2 shown):
Smiles representation	Target system	GI50
O=c1c(C(c2ccc(-c3ccccc3)cc2)c2c(O)oc3ccccc3c2=O)c(O)oc2ccccc12	786-0	26.9 µM (inactive)
COc1ccc(NC(=O)CC/C(CC(=O)C(C)(C)C)=N\NC(=O)C(N)=O)cc1	786-0	> 100 µM (inactive)

The recorded GI50 for COc1ccc(-c2cc(=O)c3cc(C)c(C)c(C(=O)O)c3o2)cc1 is > 100 µM (inactive)

The recorded GI50 for CCCCN(CCCC)C(=O)/C(CC(=O)c1cccc2ccccc12)=N\NC(=O)c1cc2ccccc2cc1O is 20.3 µM (inactive)

The recorded GI50 for CC(=O)N[C@@H](Cc1ccc(O)cn1)C(=O)NCc1ccc(Cl)cc1 is > 100 µM (inactive)

----------
- System: SF-539
- Assay explanation: NCI tumour cell line growth inhibition, 48 h
Active and inactive are the calls of the source. No stated cut-off is given here; in the data, active = GI50 up to about 1.1 µM and inactive = higher.
Assay metric: GI50

Molecule	GI50
COc1cc2c(cc1OC)C(CCN)=NCC2	6.75 µM (inactive)
CCOC(=O)C(CNc1ccc(O)cc1)NC(=O)c1ccccc1 (stereo not given)	> 100 µM (inactive)
CCN(CC)c1c(C)nnn1C1OC(COC(C)=O)C(OC(C)=O)C(OC(C)=O)C1OC(C)=O (stereo not given)	> 100 µM (inactive)
COc1cc(/C=C/C(=O)N[C@@H]2C(=O)N3[C@@H]2SC(C)(C)[C@@H]3C(=O)O)ccc1O	> 100 µM (inactive)

Now take the following molecule into account.
Record C=C1C(=O)C23CC1CCC2C12CO[C@@H]4OCC(C)(CC[C@@H]1OC3=O)C42 (stereo not given in full) / SF-539, GI50 recorded as 7.14 µM (inactive)

----------
- Tested on: U-251
- Assay explanation: NCI tumour cell line growth inhibition, 48 h
Calls of active or inactive are those of the source. Cut-off read from the data, not from the text of the source: active = GI50 up to about 1.1 µM and inactive = higher.
Quick list: GI50 per entry.

The recorded GI50 for O=c1oc2ccc(Cl)cc2cc1-c1cn2ccccc2n1 is 3.93 µM (inactive)

The recorded GI50 for COc1ccccc1NC(=O)C1=C(C)NC(C)=C(C(=O)Nc2ccccc2OC)C1C1=CC=COC1 is 9.71 µM (inactive)

The recorded GI50 for Cc1cc(Cl)ccc1/N=N/C(=O)NNc1ccc(Cl)cc1C is 16.4 µM (inactive)

The recorded GI50 for O=C1OC(c2ccccc2)=N/C1=C/N1CCCC1C(=O)O (stereo unspecified) is > 100 µM (inactive)

The recorded GI50 for O=c1cc(-c2ccccc2)oc2cc(Oc3nnnn3-c3ccccc3)ccc12 is 19.1 µM (inactive)

The recorded GI50 for S=c1sc2sc(=S)sc2s1 is 21 µM (inactive)

----------
- Test system: SK-MEL-2
- Assay explanation: NCI tumour cell line growth inhibition, 48 h
Calls of active or inactive are those of the source. Cut-off read from the data, not from the text of the source: active = GI50 up to about 1.1 µM and inactive = higher.
Quick list: GI50 per entry.

Molecule	GI50
CC1C(O)[C@@]2(OC[C@@]34C(=O)CC5(O)[C@H](CCC6Cc7nc8c(nc7C[C@]65C)CC5CC[C@@H]6C7=C[C@H]9O[C@@]%10(O[C@@](C)(CO)C[C@@H]%10O)C(C)[C@@]9(O)[C@]7(C)[C@@H](O)CC6[C@]5(C)C8)C3=CC[C@H]4C2C)OC1(C)C (some centres undefined)	0.000524 µM (active)

The recorded GI50 for CC(C)(C)C1=Nc2c(Br)cc(C(C)(C)C)cc2C(C(F)(F)F)(C(F)(F)F)O1 is > 100 µM (inactive)

The recorded GI50 for Oc1ccccc1C(c1cc2c(cc1O)OCO2)N1CCOCC1 (centres undefined) is 17.8 µM (inactive)

The recorded GI50 for CN(C)/C(=N/C(=O)Nc1ccccc1)SCc1ccccc1 is 85.1 µM (inactive)

The recorded GI50 for O=c1cc(-c2ccccc2)oc2cc(Oc3nnnn3-c3ccccc3)ccc12 is 28.4 µM (inactive)

The recorded GI50 for CCN1C2=NCCN2S(=O)(=O)c2ccccc21 is > 100 µM (inactive)

The recorded GI50 for NNC(=O)C1CCC(=O)N1S(=O)(=O)c1ccccc1 (centres undefined) is > 100 µM (inactive)

The recorded GI50 for CC(C)(C)[Si](C)(C)O/N=C\c1cccc(O[Si](C)(C)C(C)(C)C)c1 is 17.9 µM (inactive)

The recorded GI50 for O=C1OC(c2ccccc2)=N/C1=C/N1CCCC1C(=O)O (centres undefined) is > 100 µM (inactive)
